# measurement_target: human TLR9 (Homo sapiens, UniProt Q9NR96)
# experimental_details: TLR9 inhibition reporter assay (HEK-Blue cells, SEAP reporter, ODN2006 stimulation)
# run_parameters: HEK-Blue cells overexpressing human TLR9, SEAP reporter, ODN2006 5 nM
reported_metric: IC50

Some solved entries appear below for comparison.
                                   compound                        measurement_target  reported_metric  value_observed
0  Cc1c(-c2[nH]c3ccc(C4CCNCC4)cc3c2C(C)C)cn2ccnc2c1C(C)C  human TLR9 (Homo sapiens, UniProt Q9NR96)             IC50     0.1 to 1 µM
1  CC(C)c1c(-c2ccnc3[nH]ncc23)[nH]c2ccc(C3CCN(CC4CCN(C(C)C)CC4)CC3)c(F)c12  human TLR9 (Homo sapiens, UniProt Q9NR96)             IC50      1 to 50 µM
2  CC(C)c1c(-c2ccnc3[nH]ncc23)[nH]c2ccc(C3CCN(C(=O)CCN4CCCCC4)CC3)cc12  human TLR9 (Homo sapiens, UniProt Q9NR96)             IC50      1 to 50 µM
3  CC(C)c1c(-c2ccnc3[nH]ncc23)[nH]c2ccc(C3CCN(C4CCNCC4F)CC3)cc12 (centres unmarked)  human TLR9 (Homo sapiens, UniProt Q9NR96)             IC50     0.1 to 1 µM
4  Cc1cc(-c2[nH]c3ccc(C4CCN(C(=O)CCN(C)C(C)C)CC4)cc3c2C(C)C)cn2nnnc12  human TLR9 (Homo sapiens, UniProt Q9NR96)             IC50     0.1 to 1 µM

q: Look up IC50 for this compound: `CC(C)c1c(-c2cn(C)c3ncccc23)[nH]c2ccc(C3CCNCC3)cc12`
a: 1 to 50 µM

q: GET /values?readout=IC50&item= `Cc1cc(-c2[nH]c3ccc(C4CCN(C5COC5)CC4)cc3c2C(C)C)nc2scnc12`
a: 1 to 50 µM

q: Recorded IC50 for `Cc1nc2c(-c3[nH]c4ccc(C5CCN(C(=O)CN(C)C)CC5)cc4c3C(C)C)ccc(C)n2n1` , please?
a: 1 to 50 µM

* * *

# measurement_target: human TLR9 (Homo sapiens)
# Sequence (Q9NR96 26-1032): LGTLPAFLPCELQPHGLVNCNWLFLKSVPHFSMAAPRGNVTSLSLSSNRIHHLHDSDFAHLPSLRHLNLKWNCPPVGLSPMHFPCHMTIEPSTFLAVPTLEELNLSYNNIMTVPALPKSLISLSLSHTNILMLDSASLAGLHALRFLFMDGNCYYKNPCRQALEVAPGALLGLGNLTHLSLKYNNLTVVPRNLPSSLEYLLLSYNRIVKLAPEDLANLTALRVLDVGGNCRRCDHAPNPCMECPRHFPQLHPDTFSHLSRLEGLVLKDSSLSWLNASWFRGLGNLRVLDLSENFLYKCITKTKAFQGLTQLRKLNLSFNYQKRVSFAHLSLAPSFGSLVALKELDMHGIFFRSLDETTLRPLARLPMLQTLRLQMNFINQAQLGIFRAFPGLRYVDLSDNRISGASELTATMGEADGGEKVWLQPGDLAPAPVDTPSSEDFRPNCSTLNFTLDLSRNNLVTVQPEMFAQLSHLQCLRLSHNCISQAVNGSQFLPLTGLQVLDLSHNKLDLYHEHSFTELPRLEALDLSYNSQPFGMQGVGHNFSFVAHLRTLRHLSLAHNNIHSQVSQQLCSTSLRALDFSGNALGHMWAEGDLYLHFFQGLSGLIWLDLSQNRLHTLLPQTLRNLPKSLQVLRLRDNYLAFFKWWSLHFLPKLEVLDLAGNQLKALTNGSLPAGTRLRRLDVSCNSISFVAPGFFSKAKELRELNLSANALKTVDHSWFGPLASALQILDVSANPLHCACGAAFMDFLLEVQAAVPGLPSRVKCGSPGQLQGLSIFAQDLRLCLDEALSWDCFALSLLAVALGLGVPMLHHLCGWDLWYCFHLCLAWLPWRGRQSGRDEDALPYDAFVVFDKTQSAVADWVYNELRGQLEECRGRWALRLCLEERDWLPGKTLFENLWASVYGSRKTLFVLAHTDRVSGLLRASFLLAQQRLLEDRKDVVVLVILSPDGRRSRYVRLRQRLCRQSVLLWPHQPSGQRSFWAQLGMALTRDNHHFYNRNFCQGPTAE
# experimental_details: TLR9 inhibition reporter assay (HEK-Blue cells, SEAP reporter, ODN2006 stimulation)
# run_parameters: HEK-Blue cells overexpressing human TLR9, SEAP reporter, ODN2006 5 nM
pIC50: −log10 of the molar value.
Reported values of pIC50 for individual entries

Please review the entries below; each comes with its answer.
>>> print(df.to_string())
                                   compound  value_observed
0  Cc1cc(-c2[nH]c3ccc(C4CCN(C(=O)CCN5CCC(F)(F)C5)CC4)cc3c2C(C)C)cn2nnnc12 [Example 626]          < 4.30
1  CC(C)NC(=O)CN1CCC(c2ccc3[nH]c(-c4ccc5nccn5c4)c(C(C)C)c3c2)CC1 [Example 402]    4.30 to 6.00
2  CNCCN1CCC(c2ccc3[nH]c(-c4ccnc5[nH]ccc45)c(C)c3c2)CC1 [Example 668]    6.00 to 7.00
3  CCc1c(-c2cnc3[nH]ncc3c2)[nH]c2ccc(C3CCN(C4CCN(C(C)C)CC4)CC3)cc12 [Example 819]    6.00 to 7.00
4  CCc1c(-c2ccnc3[nH]ncc23)[nH]c2ccc(C3CCN(Cc4cnc(N)s4)CC3)cc12 [Example 931]          < 4.30

q: Look up pIC50 with human TLR9 (Homo sapiens) for this compound: CC(C)c1c(-c2nc3c(N)ncnc3[nH]2)[nH]c2ccc(C3CCNCC3)cc12 [Example 8]
a: 4.30 to 6.00

q: Lab note: need pIC50 with human TLR9 (Homo sapiens) for entry Cc1cc(-c2[nH]c3ccc(C4CCN(C(=O)CN5CCC(F)(F)CC5)CC4)cc3c2C(C)C)cn2nnnc12 [Example 482] , please look it up.
a: < 4.30

* * *

# measurement_target: human TLR8 (Homo sapiens)
# experimental_details: TLR8 inhibition reporter assay (HEK-Blue cells, SEAP reporter, R848 stimulation)
# run_parameters: HEK-Blue cells overexpressing human TLR8, SEAP reporter, R848 15.9 μM
reported_metric: IC50

>>> print(df.to_string())
                                   compound  reported_metric  value_observed
0  Cc1cn2cc(-c3[nH]c4ccc(C5CCN(C(=O)CC(C)O)CC5)cc4c3C(C)C)c(C)cc2n1 (stereo not shown)             IC50       > 3130 nM

q: Provide value of IC50 for this record tested with human TLR8 (Homo sapiens): `CC(C)c1c(-c2ccn3nncc3c2)[nH]c2ccc(C3CCNCC3)cc12`
a: 100 to 1000 nM

q: Recall the recorded IC50 for `CNCCN1CCC(c2ccc3[nH]c(-c4ccnc5[nH]ccc45)c(C)c3c2)CC1` with human TLR8 (Homo sapiens) and state it.
a: < 100 nM

* * *

The entries below come with measured IC50 values attached.
# measurement_target: human TLR8 (Homo sapiens, UniProt Q9NR97)
# Sequence (Q9NR97 27-1041): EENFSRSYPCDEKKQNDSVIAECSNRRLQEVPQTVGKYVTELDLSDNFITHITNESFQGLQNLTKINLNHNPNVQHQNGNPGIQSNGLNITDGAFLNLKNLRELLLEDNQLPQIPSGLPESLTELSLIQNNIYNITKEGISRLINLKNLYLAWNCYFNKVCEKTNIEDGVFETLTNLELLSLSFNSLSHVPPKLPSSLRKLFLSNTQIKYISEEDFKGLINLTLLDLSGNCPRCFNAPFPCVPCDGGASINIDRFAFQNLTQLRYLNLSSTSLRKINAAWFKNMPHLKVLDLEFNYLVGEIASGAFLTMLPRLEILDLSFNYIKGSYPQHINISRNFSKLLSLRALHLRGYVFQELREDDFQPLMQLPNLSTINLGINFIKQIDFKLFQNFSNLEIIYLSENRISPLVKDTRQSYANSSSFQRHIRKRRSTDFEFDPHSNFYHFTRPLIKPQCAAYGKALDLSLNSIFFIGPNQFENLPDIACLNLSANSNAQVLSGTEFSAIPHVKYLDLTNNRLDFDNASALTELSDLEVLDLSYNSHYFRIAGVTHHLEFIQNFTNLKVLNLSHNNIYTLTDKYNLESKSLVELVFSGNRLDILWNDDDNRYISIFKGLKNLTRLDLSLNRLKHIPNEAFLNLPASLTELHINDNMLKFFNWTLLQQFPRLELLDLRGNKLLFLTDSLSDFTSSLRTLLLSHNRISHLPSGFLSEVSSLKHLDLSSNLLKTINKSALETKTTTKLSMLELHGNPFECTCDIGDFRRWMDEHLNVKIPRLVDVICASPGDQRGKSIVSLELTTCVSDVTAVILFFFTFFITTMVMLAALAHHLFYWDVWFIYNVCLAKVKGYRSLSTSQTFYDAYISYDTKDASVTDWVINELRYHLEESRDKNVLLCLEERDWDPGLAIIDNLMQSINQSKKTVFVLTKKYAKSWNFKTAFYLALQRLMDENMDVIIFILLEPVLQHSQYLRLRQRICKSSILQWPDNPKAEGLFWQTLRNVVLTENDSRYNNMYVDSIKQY
# experimental_details: TLR8 inhibition reporter assay (HEK-Blue cells, SEAP reporter, R848 stimulation)
# run_parameters: HEK-Blue cells overexpressing human TLR8, SEAP reporter, R848 15.9 μM

Please review the entries below; each comes with its answer.
>>> df
                                   molecule    value_observed
0  CC(C)c1c(-c2cc(C(F)(F)F)c3nccn3c2)[nH]c2ccc(C3CCN(C(C)C)CC3)cc12 [Example 942]          < 100 nM
1  CC(C)c1c(-c2ccnc3[nH]c(=O)[nH]c23)[nH]c2ccc(C3CCNCC3)cc12 [Example 57]  1000 to 50000 nM
2  CC(C)c1c(-c2ccc(C#N)c3[nH]ncc23)[nH]c2ccc(C3CCNCC3)cc12 [Example 235]  1000 to 50000 nM
3  CCc1c(-c2ccnc3[nH]ncc23)[nH]c2ccc(C3CCN(C(=O)CNC)CC3)cc12 [Example 462]          < 100 nM

q: IC50 for CNC(=O)CN1CCC(c2ccc3[nH]c(-c4ccc5nccn5c4)c(C(C)C)c3c2)CC1 [Example 403] ?
a: < 100 nM

q: Reported IC50 for Cc1cc(-c2[nH]c3ccc(C4CCN(CC(C)(C)O)CC4)cc3c2C(C)C)cn2ccnc12 [Example 774] : what is it?
a: < 100 nM

* * *

Each entry below carries its reported IC50.
# measurement_target: human TLR8 (Homo sapiens)
# experimental_details: TLR8 inhibition reporter assay (HEK-Blue cells, SEAP reporter, R848 stimulation)
# run_parameters: HEK-Blue cells overexpressing human TLR8, SEAP reporter, R848 15.9 μM

Solved cases below.
>>> print(df.to_string())
                                   molecule  value_observed
0  CCc1c(-c2ccnc3[nH]ncc23)[nH]c2ccc(C3CCN(Cc4nccs4)CC3)cc12 [Example 929]        < 0.1 µM
1  Cc1nc2c(-c3[nH]c4ccc(C5CCNCC5)cc4c3C)ccnc2[nH]1 [Example 232]      1 to 50 µM
2  CC(C)c1c(-c2ccc3[nH]cnc3c2)[nH]c2ccc(C3CCNCC3)cc12 [Example 50]      1 to 50 µM
3  Cc1c[nH]c2nccc(-c3[nH]c4ccc(C5CCNCC5)cc4c3C(C)C)c12 [Example 215]     0.1 to 1 µM
4  CC(C)c1c(-c2ccnc3[nH]ncc23)[nH]c2ccc(C3CCN(CC4CCN(C(C)C)CC4)CC3)c(F)c12 [Example 967]     0.1 to 1 µM
5  CCc1c(-c2cccc3c2cnn3C)[nH]c2ccc(C3CCNCC3)cc12 [Example 100]         > 50 µM

q: What value of IC50 has been recorded for this entry: CC(=O)NCC(=O)N1CCC(c2ccc3[nH]c(-c4ccnc5[nH]ncc45)c(C(C)C)c3c2)CC1 [Example 567]
a: 0.1 to 1 µM

q: Fill blank: measured IC50 of the molecule CC(C)c1c(-c2cc(C(C)(C)O)c3nccn3c2)[nH]c2ccc(C3CCNCC3)cc12 [Example 134] is ____.
a: 0.1 to 1 µM
